B1: FANCE (parent)
chain: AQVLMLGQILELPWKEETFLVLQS

- Variants of: B1
- assay-comment: protein stability index of a GFP-peptide fusion (GPS, HEK-293T) (PSI 1-6); higher = more stable;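 note: lentivirally expressed fusions sorted by FACS into six bins by GFP to DsRed ratio, PSI derived from sequencing read proportions per bin multiplied by bin number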
- recorded-conditions: c terminus: a fixed tail appended
readout-type: protein stability index
Keep it simple and answer with nothing but the number.

*Q* Determine its reported protein stability index: I9M
*A* 2.82

*Q* For the variant V3A , give its measured protein stability index value.
*A* 3.44

*Q* # return recorded protein stability index for input L12W
*A* 2.1

*Q* Give the reported value of protein stability index for this record: S24G
*A* 2.41

*Q* Recall and state the measured protein stability index for F19C .
*A* 1.54

*Q* Return value of protein stability index for input V3Y , no commentary.
*A* 2.82

*Q* Give protein stability index for L22D
*A* 1.49

*Q* Specify protein stability index for I9Q and stop.
*A* 1.68

*Q* Answer with the recorded protein stability index for the variant listed here: M5L
*A* 2.3

*Q* State its protein stability index for this variant: M5A
*A* 2.24

*Q* Identify measured protein stability index corresponding to I9K
*A* 1.6

Reference source: the supplement of paper PMC10567573
